- ASSAYED_TARGET: Serine/threonine-protein kinase PLK1 (Homo sapiens)
- MEASUREMENT_DESCRIPTION: qHTS for Inhibitors of PLK1-PDB (polo-like kinase 1 - polo-box domain): Primary Screen; also: nearly all actives have a fitted effect of over 65% in size; also: potency is read from the fitted curve at half-maximal effect
- MEASUREMENT_CONTEXT: Plk1 PBD binding of FITC phosphopeptide, fluorescence polarization
The whole screen tested about 360,000 compounds, of which about 10,000 (2.8%) were called active. Inconclusive results (about 4%) are left out. This excerpt belongs to a sample that is enriched for actives.
MEASURED_PARAMETER: Potency

See these solved cases before continuing.
- COMPOUND: "Cc1cn(C2C=CC(CO)O2)c(=O)[nH]c1=O (stereo not given)"
  ASSAYED_TARGET: "Serine/threonine-protein kinase PLK1 (Homo sapiens)"
  RECORDED_VALUE: "29.9 µM (active)"
- COMPOUND: "COC(=O)c1cc(N2CCNCC2)nc2ccccc12"
  ASSAYED_TARGET: "Serine/threonine-protein kinase PLK1 (Homo sapiens)"
  RECORDED_VALUE: "23.8 µM (active)"
- COMPOUND: "COc1ccc(Cl)cc1NC(=O)CCS(=O)(=O)c1ccc(Br)cc1"
  ASSAYED_TARGET: "Serine/threonine-protein kinase PLK1 (Homo sapiens)"
  RECORDED_VALUE: "15 µM (active)"
- COMPOUND: "COc1ccc(NC(=O)/C(C#N)=C\\c2cc(OC)c(OCc3ccc(C(=O)O)cc3)cc2Br)cc1"
  ASSAYED_TARGET: "Serine/threonine-protein kinase PLK1 (Homo sapiens)"
  RECORDED_VALUE: "10.6 µM (active)"
- COMPOUND: "CCn1c(CC(=O)Nc2ccc(C)cc2)nnc1SCC(=O)Nc1nc(C)cs1"
  ASSAYED_TARGET: "Serine/threonine-protein kinase PLK1 (Homo sapiens)"
  RECORDED_VALUE: "26.7 µM (active)"

Return reported Potency; argument: `CC(C)Oc1ccc(Cc2n[nH]c(=S)n2Cc2ccccc2)cc1Cl`
16.8 µM (active)

Return reported Potency; argument: `CC(C)Sc1nnc([C@H](Cc2ccccc2)NC(=O)OC(C)(C)C)o1`
23.8 µM (active)

Return reported Potency; argument: `O=C(CNC(=O)c1ccccc1)Oc1ccc([N+](=O)[O-])cc1`
5.32 µM (active)

Return reported Potency; argument: `Cc1ccc(Cc2c(-c3ccco3)nc3ccc(Cl)cn23)cc1`
21.2 µM (active)

Return reported Potency; argument: `O=C(CCc1ccccc1)Nc1nn[nH]n1`
26.7 µM (active)

Return reported Potency; argument: `CC(C)c1ccc(NC(=S)NNc2ccc(Cl)c(C(=O)O)c2)cc1`
23.8 µM (active)

Return reported Potency; argument: `CCc1ccccc1S(=O)(=O)Cc1ccc(C(=O)NCCc2ccccc2)o1`
26.7 µM (active)

---

Overview of recorded max response, negative = inhibition for various compounds
- ASSAYED_TARGET: Serine/threonine-protein kinase PLK1 (Homo sapiens) (UniProt P53350)
- Sequence (P53350 whole entry, looked up, the tested form may be a part): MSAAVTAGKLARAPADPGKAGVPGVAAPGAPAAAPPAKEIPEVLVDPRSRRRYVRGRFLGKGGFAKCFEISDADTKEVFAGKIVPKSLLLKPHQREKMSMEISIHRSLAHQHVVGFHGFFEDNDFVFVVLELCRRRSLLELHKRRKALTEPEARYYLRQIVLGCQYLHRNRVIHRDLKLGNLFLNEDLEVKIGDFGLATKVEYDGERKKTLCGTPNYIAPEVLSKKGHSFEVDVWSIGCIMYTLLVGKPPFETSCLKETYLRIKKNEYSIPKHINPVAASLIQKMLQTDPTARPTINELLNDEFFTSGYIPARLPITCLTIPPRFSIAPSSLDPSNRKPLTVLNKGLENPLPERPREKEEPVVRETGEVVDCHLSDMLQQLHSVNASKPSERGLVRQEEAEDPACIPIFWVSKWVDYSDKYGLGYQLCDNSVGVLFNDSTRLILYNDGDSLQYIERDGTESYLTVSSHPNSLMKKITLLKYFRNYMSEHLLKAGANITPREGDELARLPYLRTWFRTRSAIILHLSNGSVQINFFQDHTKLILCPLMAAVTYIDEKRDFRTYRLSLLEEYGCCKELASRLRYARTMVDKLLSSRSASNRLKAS
- MEASUREMENT_DESCRIPTION: qHTS for Inhibitors of PLK1-PDB (polo-like kinase 1 - polo-box domain): Primary Screen; also: nearly all actives have a fitted effect of over 65% in size; as to max response, negative = inhibition: series mostly up to about 57 µM; % is scaled to controls: 0 for no effect and ±100 for the full control effect
- MEASUREMENT_CONTEXT: Plk1 PBD binding of FITC phosphopeptide, fluorescence polarization
Hit rate of the full screen: of about 360,000 compounds, about 10,000 (2.8%) were called active. Another 4% or so got no clear call; they are omitted. The sample as a whole holds a higher share of actives than the screen did.
Use % as the unit, but write only the number.

See these solved cases before continuing.
- COMPOUND: "O=C(Nc1ccncc1)Nc1ccc(F)cc1"
  MEASURED_PARAMETER: "max response, negative = inhibition"
  RECORDED_VALUE: 2.49
- COMPOUND: "O=C(CCNS(=O)(=O)c1ccccc1C(F)(F)F)NCc1ccc2c(c1)OCO2"
  MEASURED_PARAMETER: "max response, negative = inhibition"
  RECORDED_VALUE: -4

Shifting focus to the compound that follows.
Could you share what max response, negative = inhibition was measured for O=C1c2ccccc2-c2ccccc2NC1O (stereo not drawn) , tested on Serine/threonine-protein kinase PLK1 (Homo sapiens) (UniProt P53350)?
-5.82

---

- ASSAYED_TARGET: Serine/threonine-protein kinase PLK1 (Homo sapiens) (UniProt P53350)
- MEASUREMENT_DESCRIPTION: qHTS for Inhibitors of PLK1-PDB (polo-like kinase 1 - polo-box domain): Primary Screen; also: nearly all actives have a fitted effect of over 65% in size; as to max response, negative = inhibition: series mostly up to about 57 µM; % is scaled to controls: 0 for no effect and ±100 for the full control effect
- MEASUREMENT_CONTEXT: Plk1 PBD binding of FITC phosphopeptide, fluorescence polarization
Hit rate of the full screen: of about 360,000 compounds, about 10,000 (2.8%) were called active. Inconclusive results (about 4%) are left out. Only a selection was taken, and actives are over-represented in it overall.
Overview of recorded max response, negative = inhibition for various compounds
Use % as the unit, but write only the number.

- COMPOUND: "O=C1NC[C@H](Cc2ccc(O)cc2)N(C[C@@H]2CCCN2C[C@H](Cc2ccccc2)N2C[C@H](Cc3ccccc3)N(CC3CCCCC3)C(=O)C2=O)C1=O"
  ASSAYED_TARGET: "Serine/threonine-protein kinase PLK1 (Homo sapiens) (UniProt P53350)"
  max response, negative = inhibition (%): -9.78
- COMPOUND: "C#Cc1cc(N2CCN(C(=O)c3ccoc3)CC2)n2nc(-c3cccc(Cl)c3)cc2n1"
  ASSAYED_TARGET: "Serine/threonine-protein kinase PLK1 (Homo sapiens) (UniProt P53350)"
  max response, negative = inhibition (%): -12
- COMPOUND: "COc1cccc(-c2nc3nc(C)cc(C)n3c2NC2CCCCC2)c1"
  ASSAYED_TARGET: "Serine/threonine-protein kinase PLK1 (Homo sapiens) (UniProt P53350)"
  max response, negative = inhibition (%): -13.3
- COMPOUND: "CC(=O)c1cccc(-c2cnc3c(NC=O)cc(-c4cccc(C(=O)N(C)C)c4)cn23)c1"
  ASSAYED_TARGET: "Serine/threonine-protein kinase PLK1 (Homo sapiens) (UniProt P53350)"
  max response, negative = inhibition (%): -7.52
- COMPOUND: "CC(=O)OC[C@@H]1CN(Cc2ccccc2)C[C@H](n2cnc3c(NCc4ccco4)ncnc32)O1"
  ASSAYED_TARGET: "Serine/threonine-protein kinase PLK1 (Homo sapiens) (UniProt P53350)"
  max response, negative = inhibition (%): 1.29
- COMPOUND: "COc1ccccc1Cc1c(-c2ccc(Cl)cc2)nc2ccc(Cl)cn12"
  ASSAYED_TARGET: "Serine/threonine-protein kinase PLK1 (Homo sapiens) (UniProt P53350)"
  max response, negative = inhibition (%): -19.7
- COMPOUND: "CCOC(=O)[C@]12CCC=C1N(Cc1ccco1)C(=O)[C@H](CC(=O)N1CCSCC1)C2"
  ASSAYED_TARGET: "Serine/threonine-protein kinase PLK1 (Homo sapiens) (UniProt P53350)"
  max response, negative = inhibition (%): -15.1
- COMPOUND: "NC(c1csc(NC(=O)Nc2ccccc2Oc2ccccc2)n1)c1ccccc1Cl (configuration not stated)"
  ASSAYED_TARGET: "Serine/threonine-protein kinase PLK1 (Homo sapiens) (UniProt P53350)"
  max response, negative = inhibition (%): 0.513

Return reported max response, negative = inhibition; argument: `COc1ccc(-c2csc(Nc3cccc(C)n3)n2)cc1OC`
8.19

Return reported max response, negative = inhibition; argument: `Cc1ccc(NC(=O)O/N=C/c2cccc([N+](=O)[O-])c2)cc1`
-16.5

Return reported max response, negative = inhibition; argument: CC1(C(=O)NCc2ccccc2)CN(S(C)(=O)=O)CC(=O)N1CC(F)(F)F (configuration not stated)
3.31

Return reported max response, negative = inhibition; argument: CCOC(=O)N1CCN(C(=O)C2CC(c3ccc(F)cc3)=NO2)CC1 (configuration not stated)
-12.9

---

- ASSAYED_TARGET: Serine/threonine-protein kinase PLK1 (Homo sapiens) (UniProt P53350)
- MEASUREMENT_DESCRIPTION: qHTS for Inhibitors of PLK1-PDB (polo-like kinase 1 - polo-box domain): Primary Screen; also: nearly all actives have a fitted effect of over 65% in size; as to max response, negative = inhibition: series mostly up to about 57 µM; % is scaled to controls: 0 for no effect and ±100 for the full control effect
- MEASUREMENT_CONTEXT: Plk1 PBD binding of FITC phosphopeptide, fluorescence polarization
Out of some 360,000 compounds screened, about 10,000 (2.8%) were called active. Roughly 4% stayed inconclusive and do not appear here. The sample holds actives, similar compounds and a random draw of the others, so the mix is not that of the screen.
MEASURED_PARAMETER: max response, negative = inhibition

See these solved cases before continuing.
- COMPOUND: "O=C(NCc1ccccc1)C(c1ccc(F)cc1)N1CCN(C(=O)C2CCCO2)CC1 (configuration not stated)"
  RECORDED_VALUE: "1.19% (inactive)"
- COMPOUND: "COc1ccc(CN2C(=O)C(CC(=O)NCCN3CCOCC3)CC(C(=O)N(C(C)C)C(C)C)=C2C)cc1 (configuration not stated)"
  RECORDED_VALUE: "4.68% (inactive)"
- COMPOUND: "CCc1ccccc1NC(=O)CN1CCN(C(=O)c2cc(C3CC3)nn2-c2ccccc2)CC1"
  RECORDED_VALUE: "7.48% (inactive)"
- COMPOUND: "COc1ccc(CN2C[C@H]3CON(C)[C@H]3C[C@H]2c2ccc(-c3cccc(F)c3)cc2)cc1"
  RECORDED_VALUE: "5.3% (inactive)"

Return reported max response, negative = inhibition; argument: `CC1(C)OC(=O)C2=C(C[C@@H](C3CC3)O[C@H]2CCc2cccc(Cl)c2)O1`
4.74% (inactive)

Return reported max response, negative = inhibition; argument: O=C1/C(=C/c2ccc(F)cc2)SC(=S)N1CCCC(=O)N1CCCCC1CCO (configuration not stated)
-15.9% (inactive)

Return reported max response, negative = inhibition; argument: `COCCNC(=O)CSc1nc(N)c(NC(=O)c2ccco2)c(=O)[nH]1`
-1.47% (inactive)
